I'd be grateful if you could share measured IC50 for these entries.
Target: HCV polymerase (Hepatitis C virus genotype 1b, UniProt Q9WMX2)
Construct: (His)6 (C)
Experiment: biochemical
Settings: polymerase assay of Biological Example 1; read-out: NS5B polymerase IC50
Write the number in nM without appending the unit.

Any idea what IC50 came out for CNC(=O)c1c(-c2ccc(C)cc2)oc2nc(N(CCCC(C(=O)O)c3ccccc3)S(C)(=O)=O)c(C3CC3)cc12 (stereo not drawn) [Example 28.5] on HCV polymerase (Hepatitis C virus genotype 1b, UniProt Q9WMX2)?
1

Hello, I am looking for reported IC50 with HCV polymerase (Hepatitis C virus genotype 1b, UniProt Q9WMX2) for CNC(=O)c1c(-c2ccc(C)cc2)oc2nc(N(CCCC3CCCC3C(=O)O)S(C)(=O)=O)c(C3CC3)cc12 (stereo not drawn) [Example 29.4] . Could you help?
3

API: value(readout= IC50, system= HCV polymerase (Hepatitis C virus genotype 1b, UniProt Q9WMX2), query= CNC(=O)c1c(-c2ccc(F)cc2)oc2nc(N(C)S(C)(=O)=O)c(C3CC3)cc12 [Example 1] )
16

I'm curious: which IC50 was measured for CCc1cc2c(C(=O)NC)c(-c3ccc(F)cc3)oc2nc1N(C[C@H](C)Cc1ccc(OC)nc1)S(C)(=O)=O [Example 21.7] tested on HCV polymerase (Hepatitis C virus genotype 1b, UniProt Q9WMX2)?
531

Can you look up IC50 on HCV polymerase (Hepatitis C virus genotype 1b, UniProt Q9WMX2) for CNC(=O)c1c(-c2ccc(F)cc2)oc2nc(N(CCCC(C)O)S(C)(=O)=O)c(C3CC3)cc12 (stereo not drawn) [Example 26.4] ?
5

Which IC50 is reported with HCV polymerase (Hepatitis C virus genotype 1b, UniProt Q9WMX2) for this entry: CNC(=O)c1c(-c2ccc(C)cc2)oc2nc(N(CCCCC3(C(=O)O)CCOCC3)S(C)(=O)=O)c(C3CC3)cc12 [Example 29.95] ?
3

====

Target: HCV polymerase (Hepatitis C virus genotype 1b, UniProt Q9WMX2)
Construct: (His)6 (C)
Experiment: biochemical
Conditions: polymerase assay of Biological Example 1; read-out: NS5B polymerase IC50
Please respond with reported log10(IC50) for every item in the list.
Values reflect log10 of reported IC50 (nM).

Record CNC(=O)c1c(-c2ccc(Cl)cc2)oc2nc(N(CCCCS(C)(=O)=O)S(C)(=O)=O)c(C3CC3)cc12 : what is its log10(IC50) with HCV polymerase (Hepatitis C virus genotype 1b, UniProt Q9WMX2)?
0.00

Param readout = log10(IC50); param system = HCV polymerase (Hepatitis C virus genotype 1b, UniProt Q9WMX2); param query = CCc1ccc(-c2oc3nc(N(CCCCCC(=O)O)S(C)(=O)=O)c(C4CC4)cc3c2C(=O)NC)cc1 ; response: value
0.30

Query the reported log10(IC50) for HCV polymerase (Hepatitis C virus genotype 1b, UniProt Q9WMX2); item: CCc1cc2c(C(=O)NC)c(-c3ccc(F)cc3)oc2nc1N(CCCN(C)C(=O)c1ccccc1)S(C)(=O)=O
2.26

Form field: log10(IC50) recorded for C=C(CCCN(c1nc2oc(-c3ccc(C)cc3)c(C(=O)NC)c2cc1C1CC1)S(C)(=O)=O)C(=O)OC with HCV polymerase (Hepatitis C virus genotype 1b, UniProt Q9WMX2) (enter value)
1.18

API: value(readout= log10(IC50), system= HCV polymerase (Hepatitis C virus genotype 1b, UniProt Q9WMX2), query= CNC(=O)c1c(-c2ccc(C)cc2)oc2nc(N(CCCCN)S(C)(=O)=O)c(C3CC3)cc12 )
1.20

Notebook entry, HCV polymerase (Hepatitis C virus genotype 1b, UniProt Q9WMX2) assay: log10(IC50) of CCc1cc2c(C(=O)NC)c(-c3ccc(F)cc3)oc2nc1N(CC1CCN(C(=O)OC(C)(C)C)CC1)S(C)(=O)=O = ?
2.17

Lab note: need log10(IC50) with HCV polymerase (Hepatitis C virus genotype 1b, UniProt Q9WMX2) for entry CNC(=O)c1c(-c2ccc(C)cc2)oc2nc(N(CCC[C@@H](C)C(=O)O)S(C)(=O)=O)c(C3CC3)cc12 , please look it up.
0.48
